Origin of the recorded values: a melting point compilation (Tetko et al.; mined from patent text by program, amines drawn as free bases though some values may be those of a salt)

molecules and their reported melting point

| Molecule | melting point |
| --- | --- |
| N#CC1(c2ccccc2)CCN(c2ccn(CC3CC3)c(=O)c2Cl)CC1 | 174 °C |
| Cc1cccc(C(=O)O)c1Cl | 141 to 142 °C |
| CC(C)c1ncc(CCCOc2nn(C)cc2CC(=O)O)c(Oc2ccc(Cl)cc2Cl)n1 | 107 to 108 °C |
| Clc1ccc2c(c1)C(c1ccccc1Cl)=CCc1nncn1-2 | 189 to 190 °C |
| CC(C)N(CCO)C(=O)c1noc2ccccc12 | 92 to 94 °C |
| O=C(OCCOc1ccc(OCCO)cc1)c1ccc(O)c(Cl)c1 | 87 to 88 °C |
| CCOC(=O)C=CC(=O)Nc1ccc2c(Nc3cccc(Br)c3)ncnc2c1 | > 260 °C |
| CC(n1cncn1)C(O)(Cn1cncn1)c1ccc(F)cc1F (centres undefined) | 115 to 116 °C |
| CC1(C)CC(NC(=O)c2ccc(-c3cc4cc(Cl)c(Cl)cc4[nH]3)c(OCc3ccccc3)c2)CC(C)(C)N1 | 220 °C |
| Fc1cc(Cl)ccc1NC(=S)C1CCCC=C1N1CCOCC1 (centres undefined) | 86 to 88 °C |
| COc1cc2cc(C(=O)N3CC(CCl)c4c3cc(N)c3ccccc43)[nH]c2cc1OCCN(C)C (centres undefined) | 130 to 133 °C |
| Fc1ccc2ncn3ncnc3c2c1 | 193 to 195 °C |
| O=C(O)c1ccc2c(c1)Sc1ccc(F)cc1C(=O)C2 | 289 to 291 °C |
| Cc1nc(C)c(C(=O)Nc2cccc(Oc3ccc4nc(NC(=O)C5CC5)cn4n3)c2)s1 | 249 °C |
